tested on: Neuronal acetylcholine receptor
assay procedure: Binding affinity towards nicotinic acetylcholine receptor using [3H]nicotine as radioligand in rat brain homogenates
Assay type: tissue-based
Note that class boundaries on Ki are class 1 (below 20 nM), class 2 (20 nM to below 90 nM), class 3 (90 nM or more)

Lab note: sort "CCN(C)CCOc1cccnc1" into the matching Ki band.
class 2

----------
tested on: Neuronal acetylcholine receptor
assay procedure: Binding affinity towards nicotinic acetylcholine receptor using [3H]nicotine as radioligand in rat brain homogenates
Mark t only for Ki values smaller than 60 nM; exact matches and larger values are f.

Consider the following illustrative entries.
compound	cat
CCN(C)Cc1cncc(OC)c1	f
CN1CCCC1c1cncc(Cl)c1 (stereo not given)	t
CCN(C)Cc1ccc(Br)nc1	f
c1ccc2ncc(C3CCCN3)cc2c1 (stereo not given)	f
CN1CCCC1c1cncc(F)c1 (stereo not given)	t

Quick check: Ki of "CCN(C)CCOc1cncc(Br)c1" under 60 nM?
f

# strict comparison: is reported Ki < 60 nM? input = CN1CCCC1c1cnc2cc3ccncc3cc2c1 (stereo not given)
t

I wonder whether CN1CCCC1c1ccc(Br)nc1 (stereo not given) has Ki below 60 nM. Can you tell?
t

Bench note: check whether "CCN(C)CCOc1ccc(Br)nc1" shows Ki below 60 nM
f

Given the entry "CCN(C)CCOc1ccc(OC)nc1" , would its reported Ki be below 60 nM?
f

Dear reviewer, please state whether "CCN(C)CCOc1cncc(OC)c1" has Ki strictly beneath 60 nM.
t

Hello, is Ki of the following compound strictly smaller than 60 nM? "CCN(C)Cc1cnc2cc3ccncc3cc2c1"
f

Strictly below 60 nM: is that where Ki of "CCN(C)Cc1cnccc1Cl" sits?
t

Given the entry "CCN(C)Cc1ccc(C)nc1" , would its reported Ki be below 60 nM?
f

In the record for "CCN(C)Cc1cnccc1F" , is Ki less than 60 nM?
f
